Consider the following molecules and their measured growth inhibition readings.
experiment: NCI Yeast Anticancer Drug Screen. Data for the wt1 strain (AID 149);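 further: 0% = growth of vehicle-treated wt1 cultures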; conditions: S. cerevisiae wt1 strain (SPY 50644) growth inhibition; at 3.7 µM; hits give high values
About 79,000 compounds went through this panel and 15% of them were active in at least one assay; those are over-represented in the sample as a whole.

{"molecule": "CC1=C[C@H]2O[C@@H]3C[C@H]4OC(=O)/C=C\\C=C\\C(C(C)O)OCC(O)C(C)CC(=O)OC[C@@]2(C[C@@H]1O)[C@]4(C)[C@@]31CO1 (some centres undefined)", "growth inhibition, %": 24}
{"molecule": "Oc1cccc2nc3ccccc3nc12", "growth inhibition, %": -46}
{"molecule": "Cn1cc(NC(=O)c2cc(NC(=O)CN=C(N)N)cn2C)cc1C(=O)NCCC(=N)N", "growth inhibition, %": 26}
{"molecule": "O=[N+]([O-])O.[NH-]C1CCCCC1[NH-].[NH-]C1CCCCC1[NH-].[NH-]C1CCCCC1[NH-].[OH-].[OH-].[OH-].[Pt+4].[Pt+4].[Pt+4] (centres undefined)", "growth inhibition, %": -12}

====

assay: NCI Yeast Anticancer Drug Screen. Data for the rad50 strain (AID 155);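 further: 0% = growth of vehicle-only cultures of the same strain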; conditions: S. cerevisiae rad50 strain growth inhibition; at 50.0 µM (retest, dose inferred, filed as 5.0); hits give high values
Compounds without any hit were thinned out: in the full panel of roughly 79,000, 15% have a hit. Active and inactive are the calls of the source. Rule as the data show it: active = growth inhibition above about 70%; inactive = the rest.

{"molecule": "NC(=O)/C=C/C(=O)O (tested in a mixture with another compound)", "growth inhibition": "1% (inactive)"}
{"molecule": "CCC(=O)OC1CCn2c1nc1c2C(=O)C(C)=C(N2CC2)C1=O (stereo not drawn)", "growth inhibition": "87% (active)"}
{"molecule": "O=[N+]([O-])c1ccc(C=Cc2ccc(C(F)(F)F)cc2)cc1.[C-]#[O+].[C-]#[O+].[C-]#[O+].[Cr]", "growth inhibition": "67% (inactive)"}
{"molecule": "CCC1(CC)C(=O)[N-]C(=O)[N-]C1=O.[Au+].[Au+].c1ccc([PH+](c2ccccc2)c2ccccc2)cc1.c1ccc([PH+](c2ccccc2)c2ccccc2)cc1", "growth inhibition": "94% (active)"}
{"molecule": "COC(=O)C1c2cc3c(c(O)c2C(O)CC1(C)O)C(=O)c1c(O)cc2c(c1C3=O)OC1OC2(C)C(O)C(N(C)C)C1O (stereo not drawn)", "growth inhibition": "64% (inactive)"}
{"molecule": "CC/C(=C/c1ccc2c(c1)OCO2)[N+](=O)[O-]", "growth inhibition": "99% (active)"}
{"molecule": "O=C(CCCC(=O)NNC(=O)Nc1cccc(S(=O)(=O)F)c1)NNC(=O)Nc1cccc(S(=O)(=O)F)c1", "growth inhibition": "3% (inactive)"}
{"molecule": "C=CO/C(C)=C(\\[Se]c1ccccc1)C(C)=O", "growth inhibition": "89% (active)"}

====

assay: NCI Yeast Anticancer Drug Screen. Data for the sgs1 mgt1 strain (AID 161);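 further: 0% = growth of cultures given vehicle only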; details: S. cerevisiae sgs1 mgt1 strain, at 50.0 µM (retest, dose inferred, filed as 5.0), hits give high values
Compounds without any hit were thinned out: in the full panel of roughly 79,000, 15% have a hit.
Criterion: growth inhibition meeting or surpassing 80%. Met: TRUE. Not met: FALSE.

{"compound": "COC(=O)[C@@]12OC[C@]34[C@H]([C@@H](O)[C@@H]1O)[C@@]1(C)CC(=O)C(O)=C(C)[C@@H]1C[C@H]3OC(=O)[C@H](OC(=O)/C=C(\\C)C(C)C)[C@@H]24", "category label": "TRUE"}
{"compound": "CC1=C[C@H]2O[C@@H]3C[C@H]4OC(=O)/C=C\\C=C\\C(C(C)O)OCC(O)C(C)CC(=O)OC[C@@]2(C[C@@H]1O)[C@]4(C)[C@@]31CO1 (some centres undefined)", "category label": "FALSE"}
{"compound": "N#CC(C#N)=Cc1cc(Cl)ccc1O", "category label": "FALSE"}
{"compound": "CC(CCS(C)(=O)=O)([N+](=O)[O-])[N+](=O)[O-]", "category label": "TRUE"}
{"compound": "CCN(CC)C1CC(O[C@H]2C[C@](O)(C(=O)CO)Cc3c(O)c4c(c(O)c32)C(=O)c2c(OC)cccc2C4=O)OC(C)C1O (some centres undefined)", "category label": "TRUE"}
{"compound": "COC1C(C)OC(OC2CC(C)(O)Cc3cc4c(c(O)c32)C(=O)c2c(O)cc3c(c2C4=O)OC2OC3(C)C(O)C(N(C)C)C2O)C(OC)C1(C)OC (centres undefined)", "category label": "TRUE"}
{"compound": "CC1CC(Br)C(=O)O1 (centres undefined)", "category label": "FALSE"}
{"compound": "CCN(Cc1ccccc1)CC(O)c1ccc(Cl)c(Cl)c1 (centres undefined)", "category label": "TRUE"}
{"compound": "CC1(Cl)CC(C)(/C=C/Cl)C(Cl)CC1Cl (centres undefined)", "category label": "FALSE"}

====

experiment: NCI Yeast Anticancer Drug Screen. Data for the bub3 strain (AID 167); settings: S. cerevisiae bub3 mutant strain, at 5.0 µM (retest, dose inferred, filed as 0.5)
The panel holds about 79,000 compounds, 15% with a hit somewhere; the sample as a whole holds those more often. Activity calls are given as the source filed them. No stated cut-off is given here; in the data, active means growth inhibition above about 70%; inactive means the rest.
Classes used: active, inactive

{"compound": "CC(=O)C(Br)C(C)=O.CC(=O)C(Br)C(C)=O.CC(=O)C(Br)C(C)=O.[Rh]", "category label": "inactive"}
{"compound": "ClC1=C(Cl)C2(Cl)C(C3CO3)CC1(Cl)C2(Cl)Cl (centres undefined)", "category label": "inactive"}
{"compound": "Cc1c(N)nc([C@H](CC(N)=O)NC[C@H](N)C(N)=O)nc1C(=O)N[C@H](C(=O)N[C@H](C)[C@@H](O)CC(=O)N[C@H](C(=O)NC(O[C@@H]1O[C@@H](C)[C@@H](N)[C@@H](O)[C@H]1O)C(O)c1nc(-c2nc(C(=O)NCCCCN)cs2)cs1)[C@@H](C)O)[C@@H](O[C@@H]1O[C@@H](CO)[C@@H](O)[C@H](O)[C@@H]1O[C@H]1O[C@H](CO)[C@@H](O)[C@H](OC(N)=O)[C@@H]1O)c1c[nH]cn1 (some centres undefined)", "category label": "active"}
{"compound": "COc1ccc(C(Cc2ccc(Cl)c(Cl)c2)NCCO)cc1 (centres undefined)", "category label": "inactive"}

====

Consider the following compounds and their measured growth inhibition readings.
test: NCI Yeast Anticancer Drug Screen. Data for the mlh1 rad18 strain (AID 175); conditions: S. cerevisiae mlh1 rad18 strain growth inhibition; at 5.0 µM (retest, dose inferred, filed as 0.5); hits give high values
About 79,000 compounds went through this panel and 15% of them were active in at least one assay; those are over-represented in the sample as a whole.

{"compound": "CC(C)(C)OOC(=O)c1ccccc1", "unit symbol": "%", "growth inhibition": 26}
{"compound": "COC(=O)C1=C(C(=O)OC)C2OC1c1cc3ccccc3cc12", "unit symbol": "%", "growth inhibition": 96}
{"compound": "O=[N+]([O-])c1ccc2c[n+]3ccccc3cc2c1", "unit symbol": "%", "growth inhibition": 12}
{"compound": "COC1=[C]([Hg][Br])C(OC)OC1OC (stereo not given)", "unit symbol": "%", "growth inhibition": 99}
{"compound": "CCCCCCCC[N+](CCCC)(CCCC)CCCC (tested in a mixture with another compound)", "unit symbol": "%", "growth inhibition": 99}
{"compound": "COC12[C@@H]3N[C@@H]3CN1C1=C(C(=O)C(NCCSSCCNC3=C(C)C(=O)C4=C(C3=O)C(COC(N)=O)[C@]3(OC)C5N[C@@H]5CN43)=C(C)C1=O)[C@@H]2COC(N)=O (stereo not given in full)", "unit symbol": "%", "growth inhibition": 54}
{"compound": "C[C@@]12CCC(=O)C=C1CC[C@H]1C2=CC[C@]2(C)C1CC[C@@]2(C)O (stereo not given in full)", "unit symbol": "%", "growth inhibition": 25}
{"compound": "Cc1cccc2cc3ccccc3cc12", "unit symbol": "%", "growth inhibition": 70}
{"compound": "O=[N+]([O-])c1ccc(O)c(Cl)c1", "unit symbol": "%", "growth inhibition": -5}
{"compound": "COc1cc[c]([Sb]([Br])([CH]=C(C)C)([CH]=C(C)C)[CH]=C(C)C)cc1", "unit symbol": "%", "growth inhibition": -6}

====

assay: NCI Yeast Anticancer Drug Screen. Data for the mlh1 strain (AID 171);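 further: 0% = growth of vehicle-treated control cultures of the same strain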; details: S. cerevisiae mlh1 strain growth inhibition; at 11.0 µM; hits give high values
Compounds without any hit were thinned out: in the full panel of roughly 79,000, 15% have a hit. The source made the active and inactive calls. Cut-off read from the data, not from the text of the source: active = growth inhibition above about 70%; inactive = the rest.
assay metric: growth inhibition

{"compound": "C=CC[N+]12CN3CN(CN(C3)C1)C2", "value reported": "-23% (inactive)"}
{"compound": "COc1cccc2c1C(=O)c1c(O)c3c(c(O)c1C2=O)C[C@@](O)(C(C)=O)C[C@@H]3OC1CC(N)C(OC2CC(O)C(O)C(C)O2)C(C)O1 (stereo partly drawn)", "value reported": "-17% (inactive)"}
{"compound": "Nc1nc(N)c(-c2ccc(Cl)c(Cl)c2)c(CP(Cl)(Cl)(Cl)Br)n1", "value reported": "7% (inactive)"}
{"compound": "O=S(=O)(O)/C(=C\\c1ccccc1)c1ccccc1 (tested in a mixture with another compound)", "value reported": "1% (inactive)"}
{"compound": "O=C1C=C(CN(CCCl)CCCl)C(=O)C=C1CN(CCCl)CCCl", "value reported": "-1% (inactive)"}
{"compound": "CCC1(O)C(=O)OCc2c1cc1n(c2=O)Cc2cc3cc(Cl)ccc3nc2-1 (stereo not drawn)", "value reported": "36% (inactive)"}
{"compound": "O=[N+]([O-])c1ccc(N2CCC(CCCC3CCN(c4ccc([N+](=O)[O-])cc4[N+](=O)[O-])CC3)CC2)c([N+](=O)[O-])c1", "value reported": "-21% (inactive)"}
{"compound": "O=[N+]([O-])c1ccc(-n2nc3ccc4c(no[n+]4[O-])c3[n+]2[O-])c([N+](=O)[O-])c1", "value reported": "-3% (inactive)"}
